Test system: 616215-338-R-J1-PDC spheroid with HUVEC/MSC, viability;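 note: spheroids exposed to drugs for 7 days before readout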
Test Details: Anticancer human tumor 616215-338-R-J1-PDC patient-derived colon adenocarcinoma cell line growth inhibition [TAK]
Experimental Context: second compound 0.3 µM; first compound 1 µM; active compounds read low
Description: Combinatorial screen of targeted agents with TAK-243 and ipatasertib in multi-cell type tumor spheroids […] Compounds. […] If the clinical Cmax for an agent had not been determined, the highest concentration tested was 10 microM. NCI60 Cell Culture. […] The optimal seeding densities for each of the cell lines at each time point assessed were determined prior to performing the concentration response studies. […]
Recorded Metric: viability, T/C (%)
Your answer is read as %, so omit the unit and give the number.

| Compound | Quantity Unit | Test Result |
| --- | --- | --- |
| COc1c(OCCCN2CCOCC2)ccc2c3n(c(=NC(=O)c4cnc(N)nc4)nc12)CCN3 + CC(C)NCC(C(=O)N1CCN(c2ncnc3c2C(C)CC3O)CC1)c1ccc(Cl)cc1 | % | 17.6 |
| CCCS(=O)(=O)Nc1ccc(F)c(C(=O)c2c[nH]c3ncc(-c4ccc(Cl)cc4)cc23)c1F + CC(C)NCC(C(=O)N1CCN(c2ncnc3c2C(C)CC3O)CC1)c1ccc(Cl)cc1 | % | 98.1 |
| Cc1nc(NC(=O)N2CCCC2C(N)=O)sc1-c1ccnc(C(C)(C)C(F)(F)F)c1 (centres undefined) + CC(C)NCC(C(=O)N1CCN(c2ncnc3c2C(C)CC3O)CC1)c1ccc(Cl)cc1 | % | 112 |

Read the next record carefully.
Query: Consider the compound shown here: CC(C)(C)c1nc(-c2cccc(NS(=O)(=O)c3c(F)cccc3F)c2F)c(-c2ccnc(N)n2)s1 + CC(C)NCC(C(=O)N1CCN(c2ncnc3c2C(C)CC3O)CC1)c1ccc(Cl)cc1 What is its recorded viability, T/C?
Result: 138

All figures here come from PubChem BioAssay AID2060352.
